assay: endothelial E-selectin expression blockers – imaging, HUVEC, immunofluorescence, MLSMR starter and 10KST1 sets, primary screen (AID 487); conditions: HUVEC TNFalpha-induced E-selectin immunofluorescence imaging, at 2 µM; active compounds read high;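 further: signal is fraction of cell area covered by stained E-selectin grains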
RESULT TYPE: inhibition (%)
Give bare numbers, in %.

Illustrative cases are given below, each with its answer.
Data request, read-out inhibition, for `Cc1cc(C)n(Cc2nc3ccccc3n2C)n1`
-24.9

Data request, read-out inhibition, for `Nc1ccc(Sc2nnnn2-c2ccccc2)c(Cl)c1`
-4

Hey, quick one: what's inhibition for each of these?
1. CC(C)COc1ccc(C(=O)OCCN2CCOCC2)cc1
2. O=c1c2ccc(-c3nnc4n3-c3ccccc3SC4)cc2nc2n1CCCCC2
3. Cc1cccc(N(CC(=O)N2CCCC2)S(=O)(=O)c2ccccc2)c1C
4. Cc1cc(S(=O)(=O)N(Cc2ccccc2)Cc2ccc(N(C)C)cc2)ccc1-n1cnnn1
5. Cc1cc(C)n2nc(SCC(=O)N(C)Cc3ccccc3)nc2n1

1. -18.5
2. -41.6
3. -156
4. -58.8
5. -18.9

====

Answer each item with its documented inhibition.
test: TLR3 IRF3 reporter activation blockers – cell-based, poly I:C stimulus, luciferase, 10K MLSCN set, primary screen (AID 602277); conditions: HEK293-TLR3 RL24 IRF3 luciferase reporter, at 10 µM, active compounds read high
Give bare numbers, in %.

Illustrative cases are given below, each with its answer.
Data request, read-out inhibition, for `CCN1CCN(c2nc3c(c(=O)n(C)c(=O)n3C)n2CCSc2ncccn2)CC1`
13

Data request, read-out inhibition, for NC1=NC(c2ccc(Cl)cc2)n2c(nc3ccccc32)N1 (stereo unspecified)
18.6

Data request, read-out inhibition, for `CC(C)(C)NC(=O)Cn1nnnc1-c1nonc1N`
-10.1

Data request, read-out inhibition, for `COc1ccc(CCNC(=O)c2cnn3ccccc23)c(OC)c1OC`
-10.8

Data request, read-out inhibition, for `O=S(=O)(NCCCCCNS(=O)(=O)c1ccccc1)c1ccccc1`
22.6

Data request, read-out inhibition, for `Cc1ccc(Cl)cc1NC(=O)CSc1nnc(C)n1-c1ccccc1`
23.3

Data request, read-out inhibition, for COc1ccccc1CCNC(=O)C1CCCO1 (stereo unspecified)
-9.53

Data request, read-out inhibition, for `Nc1nc(CSc2nc3ccccc3[nH]2)nc(N2CCOCC2)n1`
18.9

Hey, quick one: what's inhibition for each of these?
1. COc1ccc(S(=O)(=O)NCC(=O)N(CC(=O)NCC2CCCO2)c2ccccc2C)cc1 (stereo unspecified)
2. Cc1c(Cl)cccc1NC(=O)CCN1CCCCCC1
3. CC(=O)NC(C)C(=O)OCC(=O)Nc1ccc(Br)cc1 (stereo unspecified)

1: 18.4; 2: 20.3; 3: 13.9

Hey, quick one: what's inhibition for each of these?
1. COCCN(CC(=O)Nc1ccccc1C)S(=O)(=O)c1ccc(S(=O)(=O)N2CCCC2)cc1
2. Cn1c(=O)c2c(nc(NCc3ccco3)n2C/C=C/c2ccccc2)n(C)c1=O
3. CC(=O)N1CCc2c(sc(NC(=O)c3ccc(S(=O)(=O)N(C)C)cc3)c2C#N)C1
4. CC1Cc2ccccc2N1C(=O)CSc1nc2ccccc2n1CC(=O)N1CCOCC1 (stereo unspecified)
5. COc1ccccc1NS(=O)(=O)c1ccc(OC)c(OC)c1
6. Cc1cc(NC(=O)C23CCC(C)(c4nc5cc(Cl)c(Cl)cc5nc42)C3(C)C)no1 (stereo unspecified)
7. Nc1nc(N2CCN(C/C=C/c3ccccc3)CC2)nc2ccccc12

13.5
18.9
22.6
2
24.3
15.9
7.48
